# assay-explanation: Drug repurposing screens with cells derived from glioblastoma tumor samples (AID 1345199); further: on the % scale 0 is the no-effect control and ±100 the full control effect
# applied-conditions: GBM patient neurospheres viability, ATP luminescence, 48 h; at 46.1 µM (top of the series); tumour line C
Results filed as inconclusive are left out.
Each record here notes measured activity, negative = cell killing.
I only need the number, in %, no unit after it.

Examples from the recorded data:
Noted for CC(N)CCCC(C)(C)O (configuration not stated) : its activity, negative = cell killing reads -13.9

Noted for "O=C(O)c1cc(=O)c2ccccc2o1" : its activity, negative = cell killing reads -14.3

Next:
Noted for C[C@@H](c1ncncc1F)C(O)(Cn1cncn1)c1ccc(F)cc1F (some centres not stated) : its activity, negative = cell killing reads 6.65

Noted for "CN(C/C=C/C#CC(C)(C)C)Cc1cccc2ccccc12" : its activity, negative = cell killing reads -0.19

Noted for CC1CCc2cc(F)cc3c(=O)c(C(=O)O)cn1c23 (configuration not stated) : its activity, negative = cell killing reads -25.6

Noted for "Cc1ccccc1N=Nc1ccc(N=Nc2c(O)ccc3ccccc23)c(C)c1" : its activity, negative = cell killing reads -1.06

Noted for "C=CCNC(N)=S" : its activity, negative = cell killing reads -3.97
